# Tested on: rabbit Platelet Activating Factor Receptor (PAF), gene 100354046
# Experiment description: NVS_GPCR_rabPAF: NovaScreen (NVS) G Protein-Coupled Receptor Assay for rabbit Platelet Activating Factor Receptor (PAF) (AID 2283287)
Records with an inconclusive call do not appear. The source made the active and inactive calls. Rule for the calls: active = hit-call score of the fitted dose curve at least 0.9, where 1 is the maximum; inconclusive = response in the unintended direction; inactive = score below 0.9.
Endpoint name: AC50

**Q:** Hi! What's the reported AC50 for "Clc1ccccc1C(c1ccccc1)(c1ccccc1)n1ccnc1" on rabbit Platelet Activating Factor Receptor (PAF), gene 100354046?
**A:** 0.621 µM (active)

**Q:** Same question, "COc1cc(C(=O)NC2CCN(C)CC2)ccc1Nc1ncc2c(n1)N(C1CCCC1)CC(F)(F)C(=O)N2C" this time
**A:** 0.76 µM (active)

**Q:** Now the compound "CCN(CC)C(=O)c1cc(S(=O)(=O)Cc2ccccc2)c(N2CCC(c3ccccc3)CC2)cc1N(CC)CCN(C)C"
**A:** 10.2 µM (active)

**Q:** Similarly, "Cc1oc2c(NC(=O)c3c(Cl)cccc3Cl)cccc2c1C(C)(C)O" ?
**A:** 5.98 µM (active)

**Q:** Please answer likewise for "NCc1cccc(C2CCN(C(=O)c3ccc(C#Cc4ccccc4F)o3)CC2)c1"
**A:** 9.21 µM (active)

**Q:** "CCCCCCCCCCCC[N+](C)(C)C" , same question.
**A:** 9.15 µM (active)

----------
# Read-out: Fatty acid synthase (Homo sapiens)
# Experiment description: LTEA_HepaRG_FASN: Life Technologies and Expression Analysis (LTEA) Assay for Fatty Acid Synthase (FASN) using HepaRG (AID 2283448)
# Condition summary: mRNA level, 48 h; actives raise or lower the signal
Activity calls are given as the source filed them. Rule for the calls: active = hit-call score of the fitted dose curve at least 0.9, where 1 is the maximum; inactive = score below 0.9.
Would you mind answering with one of these outcomes? 1 (yes) for active, 0 (no) for inactive

**Q:** Status in this test for "CO[C@H]1/C=C/O[C@@]2(C)Oc3c(C)c(O)c4c(O)c(c(/C=N/N5CCN(C)CC5)c(O)c4c3C2=O)NC(=O)/C(C)=C\C=C\[C@H](C)[C@H](O)[C@@H](C)[C@@H](O)[C@@H](C)[C@H](OC(C)=O)[C@@H]1C" ?
**A:** 0 (no)

**Q:** What do you get for "Clc1ccccc1C(c1ccccc1)(c1ccccc1)n1ccnc1" ?
**A:** 1 (yes)

**Q:** Please give the result for "CN(C[C@@H](CC[N+]12CCC(C3CCCCC3)(CC1)CC2)c1ccc(Cl)c(Cl)c1)C(=O)c1cc(C(F)(F)F)cc(C(F)(F)F)c1" too.
**A:** 1 (yes)

**Q:** Same question, "CC(C)(c1cc(Br)c(O)c(Br)c1)c1cc(Br)c(O)c(Br)c1" this time
**A:** 0 (no)

**Q:** Query "CC(C)(C)c1cc(/C=C2\SC(N)=NC2=O)cc(C(C)(C)C)c1O" next
**A:** 1 (yes)

**Q:** Would you kindly repeat that for "c1ccc2n[nH]nc2c1" ?
**A:** 0 (no)

**Q:** Would you mind doing CN1C(=O)N(c2ccccc2Br)Cc2cnc(Nc3ccc4c(c3)OCC(CO)O4)nc21 (centres undefined) as well?
**A:** 1 (yes)

**Q:** Then "O=c1ccc2ccccc2o1" ?
**A:** 0 (no)

**Q:** Now give it for "CCCCCCCCCCCCO" too.
**A:** 0 (no)
